Ref: patent US20170107207A1

Molecular target: TIP48/TIP49 complex (Homo sapiens, UniProt Q9Y230+Q9Y265)
Sequence (Q9Y230 whole entry): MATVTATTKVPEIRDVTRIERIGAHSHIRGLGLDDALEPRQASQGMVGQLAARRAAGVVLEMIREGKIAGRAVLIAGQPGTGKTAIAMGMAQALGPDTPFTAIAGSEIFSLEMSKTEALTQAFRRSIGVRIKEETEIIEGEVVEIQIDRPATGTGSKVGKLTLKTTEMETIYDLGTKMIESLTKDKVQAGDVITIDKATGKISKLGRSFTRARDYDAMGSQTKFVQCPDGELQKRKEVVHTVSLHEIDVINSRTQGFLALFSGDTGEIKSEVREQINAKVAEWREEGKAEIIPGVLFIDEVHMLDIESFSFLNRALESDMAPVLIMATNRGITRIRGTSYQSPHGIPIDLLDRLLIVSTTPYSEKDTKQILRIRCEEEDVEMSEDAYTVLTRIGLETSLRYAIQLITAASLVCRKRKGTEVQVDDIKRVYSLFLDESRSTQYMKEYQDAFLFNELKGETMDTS
Sequence (Q9Y265 whole entry): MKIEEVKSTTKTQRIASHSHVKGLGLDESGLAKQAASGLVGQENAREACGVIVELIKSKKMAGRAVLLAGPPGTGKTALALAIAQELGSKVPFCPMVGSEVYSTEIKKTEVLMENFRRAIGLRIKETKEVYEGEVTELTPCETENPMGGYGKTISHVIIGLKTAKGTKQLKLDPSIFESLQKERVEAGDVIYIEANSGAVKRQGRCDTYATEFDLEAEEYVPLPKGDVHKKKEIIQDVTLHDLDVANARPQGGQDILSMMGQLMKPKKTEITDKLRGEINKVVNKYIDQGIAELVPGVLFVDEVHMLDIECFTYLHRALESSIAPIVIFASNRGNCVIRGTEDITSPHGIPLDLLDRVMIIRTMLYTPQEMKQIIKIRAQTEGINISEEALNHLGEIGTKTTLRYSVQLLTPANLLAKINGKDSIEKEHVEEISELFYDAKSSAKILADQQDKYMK
Assay: ATPase assay of TIP48/TIP49 complex (ADP-Glo)
Conditions: concentration at which the ATPase activity was inhibited by 50%
readout: IC50 (µM)

CCOc1ccc(Cl)cc1NC(=O)CC1(CC(=O)Nc2c(CCN(C)C)n(C)n(-c3ccccc3)c2=O)CCCC1: 0.13
CCOc1ccc(Cl)cc1C(=O)NCC(C)(C)CC(=O)Nc1c(C)n(CC)n(-c2ccccc2)c1=O: 0.038

P: CCOc1ccc(Cl)cc1C(=O)NCC(C)(C)CC(=O)Nc1c(C(C)NC)n(C)n(-c2ccccc2)c1=O (stereo not shown)
Q: CCOc1ccc(Cl)cc1C(=O)NCC(C)(C)CC(=O)Nc1c(CCCCN(C)C)n(C)n(-c2ccccc2)c1=O
R: COc1ccc(Cl)cc1NC(=O)CC1(CC(=O)Nc2c(C)n(C)n(-c3ccccc3)c2=O)CC1
S: Cc1cc2cc(Cl)cc(C(=O)NCC(C)(C)CC(=O)Nc3c(CC(C)(C)N)n(C)n(-c4ccccc4)c3=O)c2o1
T: COCOc1cc(Cl)c(Cl)cc1C(=O)NCC(C)(C)CC(=O)Nc1c(C(C)CN(C)C)n(C)n(-c2ccccc2)c1=O (stereo not shown)
Qu. Ascending by IC50, please. List each label, following the requested order.
Ans. Q, S, T, P, R
(Q: 0.033 µM, S: 0.058 µM, T: 0.099 µM, P: 0.17 µM, R: 0.45 µM)
